Value source: patent US20200246316A1

test_protocol: Rat 7-day repeat dose PO study (toxicokinetics, MTD)
Format: in vivo
condition_notes: both sexes, Sprague Dawley (Hsd:SD), rat, in vivo, po, 2000 mg/kg, AUC0-24 (mean)
Structures can show the parent of a compound that is named as a salt.
measured_endpoint: AUC(0-t) (µg·h/mL)
Write the number in µg·h/mL without appending the unit.

Field AUC(0-t) (entry CC1(C)SC(Nc2ccccc2O)=N[C@@H]1C(=O)O [Compound 1, mono-hydrochloride] ) reads 1370

====

test_protocol: Dog 7-day repeat dose PO study
Assay type: in vivo
condition_notes: male, plasma, 400 mg/kg, Day 7, 400 mg/kg PO, M, N = 1
Where a name gives a salt, the structure may show the parent alone.
measured_endpoint: AUC(0-t) (µg·h/mL)
Write the number in µg·h/mL without appending the unit.

Field AUC(0-t) (entry CC1(C)SC(Nc2ccccc2O)=N[C@@H]1C(=O)O [Compound 1, mono-hydrochloride] ) reads 210
